Test system: COLO 201
METHOD DESCRIPTION: Growth inhibition of human Colo-201 cells by MTT assay
Assay type: functional, cell-based
EXPERIMENTAL ENDPOINT: pIC50
As a rule, pIC50 stands for the negative log10 of the concentration, concentration in M.

Below, 4 molecules whose answers are already recorded.
[[record]]
chemical_structure = "CCOC(=O)/C(=C\\c1ccc(B(O)O)cc1)C(=O)c1sc(Nc2ccc(OC)cc2)nc1N(C)C"
system = "COLO 201"
experimental_endpoint = "pIC50"
observed_result = 5.26

[[record]]
chemical_structure = "CCOC(=O)/C(=C\\c1ccc(B(O)O)cc1)C(=O)c1sc(Nc2ccccc2)nc1N(C)C"
system = "COLO 201"
experimental_endpoint = "pIC50"
observed_result = 5.55

[[record]]
chemical_structure = "COc1cccc2c1C(=O)c1c(O)c3c(c(O)c1C2=O)C[C@@](O)(C(=O)CO)C[C@@H]3O[C@H]1C[C@H](N)[C@H](O)[C@H](C)O1"
system = "COLO 201"
experimental_endpoint = "pIC50"
observed_result = 6.10

[[record]]
chemical_structure = "CCOC(=O)/C(=C\\c1ccc(B(O)O)cc1)C(=O)c1sc(Nc2ccc(F)cc2)nc1-c1ccccc1"
system = "COLO 201"
experimental_endpoint = "pIC50"
observed_result = 5.25


Shifting focus to the molecule that follows.
Problem: Send back COLO 201 pIC50 of CCOC(=O)/C(=C\c1ccc(B(O)O)cc1)C(=O)c1sc(Nc2ccc(Cl)cc2)nc1N(C)C only.
Solution: 5.43

----------
SYSTEM: UniProtKB P14618
Sequence (P14618 whole entry): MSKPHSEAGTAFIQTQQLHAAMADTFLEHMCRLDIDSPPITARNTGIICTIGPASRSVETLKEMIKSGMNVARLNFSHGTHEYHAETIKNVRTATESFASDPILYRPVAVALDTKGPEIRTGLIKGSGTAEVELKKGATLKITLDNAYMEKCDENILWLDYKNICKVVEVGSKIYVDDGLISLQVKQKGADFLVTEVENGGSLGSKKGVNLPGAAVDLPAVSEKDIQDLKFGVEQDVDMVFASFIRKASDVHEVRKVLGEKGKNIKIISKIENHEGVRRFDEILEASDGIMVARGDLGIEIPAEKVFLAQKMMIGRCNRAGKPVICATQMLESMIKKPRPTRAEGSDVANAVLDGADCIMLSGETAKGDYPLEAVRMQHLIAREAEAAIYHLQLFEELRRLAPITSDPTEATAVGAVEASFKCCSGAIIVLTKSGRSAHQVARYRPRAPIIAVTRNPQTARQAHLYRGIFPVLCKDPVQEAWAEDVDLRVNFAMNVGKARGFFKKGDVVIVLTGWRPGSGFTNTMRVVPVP
METHOD DESCRIPTION: Activation of PKM2 (unknown origin) by pyruvate kinase-lactate dehydrogenase coupled assay
The following compounds are listed with their measured pEC50 values.
As a rule, pEC50 stands for the negative log10 of the concentration, concentration in M.

Problem: Output measured pEC50 for this item: CCOC(=O)/C(=C\c1ccc(B(O)O)cc1)C(=O)c1sc(Nc2ccc(F)cc2)nc1-c1ccccc1
Solution: 5.21

Problem: Output measured pEC50 for this item: CCOC(=O)/C(=C\c1ccc(B(O)O)cc1)C(=O)c1sc(Nc2ccccc2)nc1N(C)C
Solution: 5.15

Problem: Output measured pEC50 for this item: CCOC(=O)/C(=C\c1ccc(B(O)O)cc1)C(=O)c1sc(Nc2ccc(Cl)cc2)nc1N(C)C
Solution: 5.24

Problem: Output measured pEC50 for this item: CCOC(=O)/C(=C\c1ccc(B(O)O)cc1)C(=O)c1sc(Nc2ccc(OC)cc2)nc1N(C)C
Solution: 5.09
